Source listed as PubChem BioAssay (NCI).

Tested on: K-562 leukemia
Assay: NCI tumour cell line growth inhibition, 48 h
The entries below are paired with their reported TGI.

COMPOUND | TGI
CC1(C)Cc2cc(C(=O)O)c3c(c2C1=O)COCC3 | > 100 µM
O=C1[C@@H]2[C@@H](c3ccccc3)[C@]2(Cl)C(=O)[C@H]2[C@H](c3ccccc3)[C@@]12Cl | > 100 µM
COC(=O)/C=C/c1ccc2c(c1)CC1(C2)Cc2cc3c(cc2C1=O)CCC3 (stereo not drawn) | > 100 µM

====

Tested on: HOP-92 NSCLC
Experiment: NCI tumour cell line growth inhibition, 48 h
READOUT_TYPE: log10(TGI) (log10 of the value in µM)

COMPOUND | READOUT_TYPE | ENDPOINT_RESULT
N#CSCC1CC(O)(c2ccccc2)CC(c2ccc(F)cc2)O1 (configuration not stated) | log10(TGI) | 0.78
CCOC(=O)C(Cl)(NC(=O)c1c(F)c(F)c(F)c(F)c1F)C(F)(F)F (configuration not stated) | log10(TGI) | 1.88
Cc1[nH]c(=O)nc(N(CCO)/N=C/c2ccccc2Cl)c1C(=O)Nc1cc(Cl)cc(Cl)c1 | log10(TGI) | 1.84
Nc1nc(-c2ccc(F)cc2)c(-c2ccc3ncccc3n2)s1 | log10(TGI) | 1.39
O=C(NCc1ccc(Cn2c(=O)sn(-c3ccccc3)c2=O)cc1)OCc1ccc2c(Br)cc(Br)c(O)c2n1 | log10(TGI) | 0.26

====

Item-by-item account of GI50
Tested on: UO-31 renal
Assay: NCI tumour cell line growth inhibition, 48 h
READOUT_TYPE: GI50

COMPOUND_STRING | ASSAYED_TARGET | ENDPOINT_RESULT
COc1cc(O)c(C(=O)/C=C/c2ccc(O)cc2)c(O)c1[C@@H]1C[C@H](CCc2ccc(O)cc2)O[C@H](c2ccc(O)cc2)C1 | UO-31 renal | 3.17 µM
O=C(Nc1ccccc1)NS(=O)(=O)c1ccc(-n2nc3c(c2-c2ccc(Cl)cc2)Cc2ccccc2-3)cc1 | UO-31 renal | 24.5 µM
COc1cc(C2=C(C#Cc3ccccc3)COC2=O)cc(OC)c1OC | UO-31 renal | 3.6 µM
Cn1ccnc1C(=O)/C=C/c1ccccc1 | UO-31 renal | 4.69 µM
O=C(/C=C/c1cc([N+](=O)[O-])ccc1Cl)c1ccccc1 | UO-31 renal | 11.7 µM

====

System: IGROV1 ovarian
Experiment: NCI tumour cell line growth inhibition, 48 h
Recorded measurements of TGI, one per entry

MOLECULE | TGI
N=c1c2c(-c3ccccc3)c[nH]c2ncn1N | > 100 µM
CCOC(=O)C(=Cc1ccc(Oc2ccccc2)cc1)C(=O)OCC | 20.8 µM
O=C(/C=C/c1cc(O)c(O)cc1O)OCCc1ccccc1 | 40.5 µM
CCCCCCCCCCCCCC[S+](C)C | 2.33 µM
COC(=O)C1=C(O)C(C(=O)OC)[C@]2(O)[C@H](C(=O)OC)[C@H]1C[C@@H](c1c(Cl)cccc1Cl)[C@H]2C(=O)OC (some centres not stated) | 5.99 µM
O=C(Nc1nc2ncn(CCNCc3ccccc3)c2c(=O)[nH]1)c1ccccc1 | > 100 µM
O=C(O)c1cnc2[nH]ccn2c1=O | > 100 µM
CC(=O)N(O)[C@@H]1CC[C@H](n2cnc3c(N)ncnc32)C1 | > 100 µM
Nc1nc(N)c2ncn(Cc3ccccc3CCl)c2n1 | > 100 µM
CSCCCNC(=O)c1csc(-c2csc(C(CNC(=O)OC(C)(C)C)CNC(=O)OC(C)(C)C)n2)n1 | > 100 µM
CC(C)(C)c1cc2c3c(c1)C(C(F)(F)F)(C(F)(F)F)O[Te]3(C)OC2(C(F)(F)F)C(F)(F)F | > 100 µM
Cc1[nH]c(=O)nc(N(CCO)/N=C/c2ccccc2Cl)c1C(=O)Nc1cc(Cl)cc(Cl)c1 | > 100 µM
N#Cc1c(N)nc(N2CCOCC2)c(C#N)c1-c1cccnc1 | 44.8 µM
Cc1ccc(-n2[nH]nc(C#N)c2=O)cc1 | > 100 µM
Cn1/c(=N\S(=O)(=O)c2ccccc2)n(S(=O)(=O)c2ccccc2)c2ccccc21 | > 100 µM
Cc1cccc2c(=O)c3c(sc12)c(NCCNCCO)nc1ccccc13 | 2.65 µM
COc1cc2c3c(c1OC)-c1c(ccc4c1OCO4)CC3(C#N)N(C(=O)c1ccccc1)CC2 (configuration not stated) | > 100 µM
COc1ccc(OC)c(CC2CCc3nc(N)nc(N)c3C2)c1 (configuration not stated) | 28.1 µM
COc1ccc2c(c1)n([O-])c1ccccc1[n+]2=O | 19.1 µM
CCCCCCCCCCCCOP(=O)(O)OCC(N)C(=O)O (configuration not stated) | > 100 µM
CCc1ccc2nc(-c3ccc(O)cc3)sc2c1 | 29.4 µM
CN(C)c1ccccc1CN1CCCN(Cc2ccccc2N(C)C)C1c1ccncc1 | 28.1 µM
CCC1CN2CCc3c([nH]c4ccccc34)C2C[C@@H]1CC(=O)N(C)C (some centres not stated) | > 100 µM
COCCCNC(=O)CC(=O)NCCCOC | > 100 µM
O=CC[C@H]1CCc2ccccc2C12CCC(=O)CC2 | > 100 µM
Fc1ccc2nc3n(c2c1)C(c1c(Cl)cccc1Cl)SC3 (configuration not stated) | > 100 µM
O=C1/C(=C/c2ccc(Cl)cc2)N=C(c2ccccc2)N1CCc1cccs1 | > 100 µM
